- system_under_test: mouse Mdr1a (Mus musculus, UniProt P21447)
- Sequence (P21447 whole entry): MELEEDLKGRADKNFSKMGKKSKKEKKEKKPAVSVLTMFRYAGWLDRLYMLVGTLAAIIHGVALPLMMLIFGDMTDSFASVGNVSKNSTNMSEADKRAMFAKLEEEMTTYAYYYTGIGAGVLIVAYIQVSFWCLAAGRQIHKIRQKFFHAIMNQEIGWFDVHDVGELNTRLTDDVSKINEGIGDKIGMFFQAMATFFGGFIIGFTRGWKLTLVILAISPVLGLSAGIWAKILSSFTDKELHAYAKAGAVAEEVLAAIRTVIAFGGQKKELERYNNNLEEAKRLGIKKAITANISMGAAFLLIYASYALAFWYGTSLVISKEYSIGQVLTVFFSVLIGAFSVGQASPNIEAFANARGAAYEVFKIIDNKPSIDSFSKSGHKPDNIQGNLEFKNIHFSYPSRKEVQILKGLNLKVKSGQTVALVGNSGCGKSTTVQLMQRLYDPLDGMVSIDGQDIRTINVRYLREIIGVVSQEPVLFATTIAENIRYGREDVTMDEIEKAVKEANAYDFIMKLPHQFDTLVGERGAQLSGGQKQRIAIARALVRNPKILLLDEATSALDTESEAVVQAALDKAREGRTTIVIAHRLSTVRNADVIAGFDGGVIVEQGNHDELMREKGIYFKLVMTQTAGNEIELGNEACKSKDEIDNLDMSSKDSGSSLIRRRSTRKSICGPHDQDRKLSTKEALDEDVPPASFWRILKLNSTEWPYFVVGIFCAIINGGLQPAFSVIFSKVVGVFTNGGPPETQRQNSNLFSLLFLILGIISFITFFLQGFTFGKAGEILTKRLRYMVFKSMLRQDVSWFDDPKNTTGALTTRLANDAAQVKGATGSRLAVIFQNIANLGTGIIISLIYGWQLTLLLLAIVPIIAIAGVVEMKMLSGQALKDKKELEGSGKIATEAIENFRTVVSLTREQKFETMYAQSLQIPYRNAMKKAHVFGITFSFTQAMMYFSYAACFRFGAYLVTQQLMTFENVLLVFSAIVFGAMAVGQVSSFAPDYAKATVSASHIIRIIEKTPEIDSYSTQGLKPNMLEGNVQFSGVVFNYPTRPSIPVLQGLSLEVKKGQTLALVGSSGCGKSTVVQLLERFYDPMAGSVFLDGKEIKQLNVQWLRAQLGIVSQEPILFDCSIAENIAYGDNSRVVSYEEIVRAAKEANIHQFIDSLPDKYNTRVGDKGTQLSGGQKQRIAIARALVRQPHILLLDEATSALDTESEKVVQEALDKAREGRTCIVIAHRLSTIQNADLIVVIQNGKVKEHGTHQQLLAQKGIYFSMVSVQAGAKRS
- assay_summary: Bidirectional transport assay, efflux ratio in Abcb1KO-MDCKII mMDR1 cells
- settings: mouse, pH 7.4
This listing pairs compounds with measured efflux ratio at 120 min, 1 µM.

Worked examples follow.
Clc1cccc(Cl)c1N=C1NCCN1    0.99
O=c1n(CCCN2CCN(c3cccc(Cl)c3)CC2)nc2ccccn12    0.98
COc1ccc(CCN2CCC(Nc3nc4ccccc4n3Cc3ccc(F)cc3)CC2)cc1    4.52

What value of measured efflux ratio at 120 min, 1 µM is listed for CC[C@]1(O)C[C@@H]2CN(CCc3c([nH]c4ccccc34)[C@@](C(=O)OC)(c3cc4c(cc3OC)N(C)[C@H]3[C@@](O)(C(=O)OC)[C@H](OC(C)=O)[C@]5(CC)C=CCN6CC[C@]43[C@@H]65)C2)C1 ? 50.5

Dear colleague, I am looking for the recorded efflux ratio at 120 min, 1 µM of the following compound: C=CCN1CC[C@]23c4c5ccc(O)c4O[C@H]2C(=O)CC[C@@]3(O)[C@H]1C5 0.37

Give its efflux ratio at 120 min, 1 µM value. Item: COc1cc2ncnc(Nc3ccc(F)c(Cl)c3)c2cc1OCCCN1CCOCC1 8.98

// efflux ratio at 120 min, 1 µM lookup, key: CN(C)CCC(c1ccccc1)c1ccccn1 (stereo not shown) 1.1
